Test system: rat erythrocytes
method_description: Hemolysis assay
Assay type: cell-based
condition_notes: red cells of rat
Counter-ions that a name gives are not always drawn. Square brackets hold non-standard residues; d marks the D form. Peptide text beside a SMILES is read from it. Gly(N(CH2)2(3-indolyl)) = O=C(O)CNCCc1c[nH]c2ccccc12; Nspe = C[C@H](NCC(=O)O)c1ccccc1; Nlys = NCCCCNCC(=O)O
This listing pairs compounds with measured HC50.

Example entries and their recorded answers appear below.
{"compound": "C[C@@H](c1ccccc1)N(CC(N)=O)C(=O)CN(CCCCN)C(=O)CN(CCCCN)C(=O)CN(C(=O)CN(C(=O)CN(CCCCN)C(=O)CN(C(=O)CN(C(=O)CN(CCCCN)C(=O)CN(CCc1c[nH]c2ccccc12)C(=O)CN(CCc1c[nH]c2ccccc12)C(=O)CNCCCCN)[C@@H](C)c1ccccc1)[C@@H](C)c1ccccc1)[C@@H](C)c1ccccc1)[C@@H](C)c1ccccc1 [32-HCl]", "measured_target": "rat erythrocytes", "HC50": "> 100 µM"}
{"compound": "C[C@@H](c1ccccc1)N(CC(N)=O)C(=O)CN(CCCCN)C(=O)CN(CCCCN)C(=O)CN(C(=O)CN(C(=O)CN(CCCCN)C(=O)CN(C(=O)CN(C(=O)CN(CCCCN)C(=O)CN(CCc1c[nH]c2ccccc12)C(=O)CN(CCc1c[nH]c2ccccc12)C(=O)CNCCCCN)[C@@H](C)c1ccccc1)[C@@H](C)c1ccccc1)[C@@H](C)c1ccccc1)[C@@H](C)c1ccccc1 [32-AcOH]", "measured_target": "rat erythrocytes", "HC50": "> 100 µM"}

In the following, a different compound is considered.
HC50 reading for C[C@@H](c1ccccc1)N(CC(=O)N(CCCCN)CC(=O)N(CCc1c[nH]c2ccccc12)CC(=O)N(CCc1c[nH]c2ccccc12)CC(N)=O)C(=O)CN(CCCCN)C(=O)CN(CCCCN)C(=O)CN(C(=O)CN(C(=O)CN(CCCCN)C(=O)CN(C(=O)CN(C(=O)CNCCCCN)[C@@H](C)c1ccccc1)[C@@H](C)c1ccccc1)[C@@H](C)c1ccccc1)[C@@H](C)c1ccccc1 [29-HCl] (H-[Nlys][Nspe][Nspe][Nlys][Nspe][Nspe][Nlys][Nlys][Nspe][Nlys][Gly(N(CH2)2(3-indolyl))][Gly(N(CH2)2(3-indolyl))]-NH2) : > 100 µM

Numbers sourced from paper PMC10460844.
